Overview of recorded pEC50 for various binders
- test-target: T1, cynomolgus monkey CCR8 (cynomolgus monkey, UniProt G7NYJ2 1-355)
- T1 construct: whole, on cells; also called CynoCCR8
- T1 sequence (G7NYJ2 entry or part of it): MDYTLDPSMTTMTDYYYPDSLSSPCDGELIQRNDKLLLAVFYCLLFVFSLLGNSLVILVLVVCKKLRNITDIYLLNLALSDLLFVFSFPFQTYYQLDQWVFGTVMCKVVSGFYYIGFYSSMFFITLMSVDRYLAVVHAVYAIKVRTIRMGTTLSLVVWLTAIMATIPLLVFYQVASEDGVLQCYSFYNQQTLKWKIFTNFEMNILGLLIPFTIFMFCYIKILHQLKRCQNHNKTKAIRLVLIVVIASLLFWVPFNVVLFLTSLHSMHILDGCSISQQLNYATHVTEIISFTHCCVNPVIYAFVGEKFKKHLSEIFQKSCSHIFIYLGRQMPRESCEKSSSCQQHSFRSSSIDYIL
- procedure-summary: FACS, CHO-K1-CynoCCR8 cells
pEC50 field: float, defined as -log10 of concentration (mol/L).

- binder: "PR004335 (antibody, human IgG1, kappa, V domains shown, heavy-chain semi-humanized variant of PR004128, IgG1 with DE mutation) VH: EVQLVESGGGLVQPGGSLRLSCAASGFTFNTYAMNWVRQAPGKGLEWVSRIRSKSNNYATYYADSVKDRFTISRDDSKSTLYLQMNSLRAEDTAVYYCVRGKENGNYYAMDYWGQGTTVTVSS VL: DIVMTQAAPSVPVTPGESVSISCRSSKSLLHSNGKIYLYWFLQRPGQSPQLLIYRMSNLASGVPDRFSGSGSGTAFTLRISRVEAEDVGVYYCMQHLEYPLTFGAGTKLEIKR"
  pEC50: 8.45
- binder: "PR004328 (antibody, human IgG1, kappa, V domains shown, PTM variant of PR004128, IgG1 with DE mutation) VH: EVQLVESGGGLVQPKGSLKLSCAASGFTFSTYAMNWVRQAPGKGLEWVARIRSKSNNYATYYADSVKDRFTISRDDSQSMLYLQMNNLKTEDTAMYYCVRGKENGNYYAMDFWGQGTSVTVSA VL: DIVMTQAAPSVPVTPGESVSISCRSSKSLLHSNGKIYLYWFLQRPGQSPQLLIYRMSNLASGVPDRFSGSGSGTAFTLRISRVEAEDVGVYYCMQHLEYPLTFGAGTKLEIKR"
  pEC50: 8.22

Attention now turns to another entry.
Problem: Look up pEC50 for this binder: PR004340 (antibody, human IgG1, kappa, V domains shown, light-chain semi-humanized variant of PR004128, IgG1 with DE mutation) VH: EVQLVESGGGLVQPKGSLKLSCAASGFTFNTYAMNWVRQAPGKGLEWVARIRSKSNNYATYYADSVKDRFTISRDDSQSMLYLQMNNLKTEDTAMYYCVRGKENGNYYAMDFWGQGTSVTVSA VL: DIVMTQSPLSLPVTPGEPASISCRSSKSLLHSNGNTYLYWFLQKPGQSPQLLIYRMSNLASGVPDRFSGSGSGTDFTLKISRVEAEDVGVYYCMQHLEYPLTFGQGTKLEIKR
Solution: 8.27

Taken from patent US20240132603A1.
